- TARGET_ENTITY: T1, human ROR1-His protein (fused with a His protein tag, Acrobiosystems, RO1-H522y) (human, UniProt Q01973 30-403)
- T1 construct: also called recombinant human ROR1-His protein; not shown: His tag
- ASSAY_TEXT: indirect ELISA, antigen coated at 1 ug/ml
MEASURED_PARAMETER: EC50 (µg/mL)
Value expressed in µg/mL; do not type the unit.

Below, 2 binders whose answers are already recorded.
{"columns": ["BINDER", "EC50 (µg/mL)"],
 "data": [
  ["single domain antibody AHP15547 (Fc fusion, VHH expressed from pcDNA3.4-Fc (HuIgG1); not shown: human IgG1 Fc of the pcDNA3.4-Fc (HuIgG1) expression vector) AVQLVDSGGGSVQPGESLTLSCTGSARFLSNYGMGWYRQFPGKMREMVAYETNRGNKRYAESVKGRFRIARDAAKTTVYLEMNSLKPEDTAVYYCNAESSGWGRRNYWGQGTQVTVSS", 0.0105],
  ["single domain antibody AHP15768 (Fc fusion, VHH expressed from pcDNA3.4-Fc (HuIgG1); not shown: human IgG1 Fc of the pcDNA3.4-Fc (HuIgG1) expression vector) QVQLVESGGGSVQAGGSLRLSCAVSGRSISLYNMGWFRQAPGKEREFVSAINWSGGRTYYADSVKGRFTISRNNAKNTMYLQMNSLKPEDTATYYCAVDVEGWFRVSGDAAGYDYWGQGTQVTVSS", 0.0203]
]}

// switching to the query binder
Which EC50 value is on record for single domain antibody AHP15773 (Fc fusion, VHH expressed from pcDNA3.4-Fc (HuIgG1); also called AHP15773-VHH; not shown: human IgG1 Fc of the pcDNA3.4-Fc (HuIgG1) expression vector) EVQLVESGGGLVQPGGSLRLSCLASGSDFSDSAMGWYRQAPGKQREFVAAIGAGGITTYADSVKGRFTISRDSAKNIVYLQMSSLSPEDTAVYFCNFAPGWYPPGYQYWGQGTQVTVSS ?
0.0155
